Would you mind telling me the reported pIC50 of each entry?
Biological target: human 11β-HSD1 (Homo sapiens)
Construct: stably transfected with a construct containing the full-length gene coding for the human 11β-HSD1 enzyme; expressed in transfected cells; host or cells: HEK293 (stably transfected, HEK293/11β-HSD1)
Sequence (P28845 whole entry): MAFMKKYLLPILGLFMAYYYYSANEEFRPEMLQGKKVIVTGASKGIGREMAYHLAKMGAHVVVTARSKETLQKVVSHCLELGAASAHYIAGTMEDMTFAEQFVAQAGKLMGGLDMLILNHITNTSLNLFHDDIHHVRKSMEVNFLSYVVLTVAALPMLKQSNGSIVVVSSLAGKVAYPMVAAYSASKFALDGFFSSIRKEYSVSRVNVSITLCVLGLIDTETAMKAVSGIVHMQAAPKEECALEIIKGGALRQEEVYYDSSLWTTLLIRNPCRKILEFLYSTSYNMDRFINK
Experiment: Cellular in vitro 11β-HSD1 enzyme inhibition assay (SPA, HEK293/11β-HSD1 cells)
Assay type: cell-based
Conditions: HEK293 cells transfected with human 11β-HSD1; first value in cell; read-out: IC50 for 11β-HSD1 (HEK293)
Worth noting: pIC50 values are minus log10 of concentrations stated in mol/L.

Measured on human 11β-HSD1 (Homo sapiens), N#CC1(c2ccccn2)CC2CCC(C1)N2C(=O)c1csc(-c2cn[nH]c2)c1 (stereo not drawn) has a documented pIC50 of 7.82

Measured on human 11β-HSD1 (Homo sapiens), O=C(c1csc(-c2cn[nH]c2)c1)N1C2CCC1CC(F)(c1cccnn1)C2 (stereo not drawn) has a documented pIC50 of 7.33

Measured on human 11β-HSD1 (Homo sapiens), O=C(c1csc(-c2cn[nH]c2)c1)N1C2CCC1CC(O)(c1ccccn1)C2 (stereo not drawn) has a documented pIC50 of 7.68

Measured on human 11β-HSD1 (Homo sapiens), O=C(c1csc(-c2cn[nH]c2)c1)N1CCC(O)(c2ncccc2Cl)CC1 has a documented pIC50 of 7.31

Measured on human 11β-HSD1 (Homo sapiens), O=C(c1csc(-c2cn[nH]c2)c1)N1C2CCC1CC(O)(c1cnccn1)C2 (stereo not drawn) has a documented pIC50 of 7.43

Measured on human 11β-HSD1 (Homo sapiens), O=C(c1csc(-c2cn[nH]c2)c1)N1C2CCC1CC(O)(c1nccs1)C2 (stereo not drawn) has a documented pIC50 of 7.48

Measured on human 11β-HSD1 (Homo sapiens), O=C(c1csc(-c2cn[nH]c2)c1)N1CCC(O)(c2ccncc2Cl)CC1 has a documented pIC50 of 7.55

Measured on human 11β-HSD1 (Homo sapiens), O=C(c1csc(-c2cn[nH]c2)c1)N1C2CCC1CC(O)(c1ncccn1)C2 (stereo not drawn) has a documented pIC50 of 7.17

Measured on human 11β-HSD1 (Homo sapiens), Cc1cccnc1C1(F)CC2CCC(C1)N2C(=O)c1csc(-c2cn[nH]c2)c1 (single isomer, unassigned) has a documented pIC50 of 8.05

Measured on human 11β-HSD1 (Homo sapiens), Cc1cccnc1C1(O)CC2CCC(C1)N2C(=O)c1csc(-c2cn[nH]c2)c1 (stereo not drawn) has a documented pIC50 of 8.52

Measured on human 11β-HSD1 (Homo sapiens), O=C(c1csc(-c2cn[nH]c2)c1)N1C2CCC1CC(O)(c1ncccc1Cl)C2 (stereo not drawn) has a documented pIC50 of 7.92

Measured on human 11β-HSD1 (Homo sapiens), O=C(c1csc(-c2cn[nH]c2)c1)N1C2CCC1CC(F)(c1ncccc1Cl)C2 (stereo not drawn) has a documented pIC50 of 7.51

###

Molecular target: human 11β-HSD1 (Homo sapiens)
Construct: stably transfected with a construct containing the full-length gene coding for the human 11β-HSD1 enzyme; expressed in transfected cells; host or cells: HEK293 (stably transfected, HEK293/11β-HSD1)
Assay: Cellular in vitro 11β-HSD1 enzyme inhibition assay (SPA, HEK293/11β-HSD1 cells)
Assay type: cell-based
Settings: HEK293; potency groups; read-out: IC50 for 11β-HSD1 (HEK293)
pIC50: −log10 of the molar value.
measure_name: pIC50

The recorded pIC50 for O=C(c1csc(-c2cn[nH]c2)c1)N1C2CCC1CC(O)(c1cscn1)C2 (stereo not shown) [XX-36] is ≥ 7.00

The recorded pIC50 for CCOC1(c2ccccn2)CC2CCC(C1)N2C(=O)c1csc(-c2cn[nH]c2)c1 (stereo not shown) [XX-12] is ≥ 7.00

The recorded pIC50 for O=C(c1csc(-c2cn[nH]c2)c1)N1CCC(O)(c2ccncc2Cl)CC1 [YY-06] is ≥ 7.00

The recorded pIC50 for O=C(c1csc(-c2cn[nH]c2)c1)N1C2CCC1CC(O)(c1ccccn1)C2 (stereo not shown) [XX-01] is ≥ 7.00

The recorded pIC50 for O=C(c1csc(-c2cn[nH]c2)c1)N1C2CCC1CC(O)(c1nccs1)C2 (stereo not shown) [XX-29] is ≥ 7.00

The recorded pIC50 for Cc1csc(C2(O)CC3CCC(C2)N3C(=O)c2csc(-c3cn[nH]c3)c2)n1 (stereo not shown) [XX-30] is 6.30 to 7.00

The recorded pIC50 for O=C(c1csc(-c2cn[nH]c2)c1)N1C2CCC1CC(O)(c1cccnn1)C2 (stereo not shown) [XX-27] is ≥ 7.00

The recorded pIC50 for Cc1cccnc1C1(O)CC2CCC(C1)N2C(=O)c1csc(-c2cn[nH]c2)c1 (stereo not shown) [XX-07] is ≥ 7.00

The recorded pIC50 for Cc1nccnc1C1(O)CC2CCC(C1)N2C(=O)c1csc(-c2cn[nH]c2)c1 (stereo not shown) [XX-25] is 6.30 to 7.00

The recorded pIC50 for O=C(c1csc(-c2cn[nH]c2)c1)N1C2CCC1CC(F)(c1nccs1)C2 (single isomer, unassigned) [XX-34] is 6.30 to 7.00

The recorded pIC50 for N#CC1(c2ncccn2)CC2CCC(C1)N2C(=O)c1csc(-c2cn[nH]c2)c1 (stereo not shown) [XX-26] is ≥ 7.00

The recorded pIC50 for O=C(c1csc(-c2cn[nH]c2)c1)N1CCC(O)(c2ncccc2Cl)CC1 [YY-02] is ≥ 7.00

The recorded pIC50 for COc1cccc(C2(O)CC3CCC(C2)N3C(=O)c2csc(-c3cn[nH]c3)c2)n1 (stereo not shown) [XX-05] is ≥ 7.00
